Target: D(2) dopamine receptor (Bos taurus)
Sequence (P20288 whole entry): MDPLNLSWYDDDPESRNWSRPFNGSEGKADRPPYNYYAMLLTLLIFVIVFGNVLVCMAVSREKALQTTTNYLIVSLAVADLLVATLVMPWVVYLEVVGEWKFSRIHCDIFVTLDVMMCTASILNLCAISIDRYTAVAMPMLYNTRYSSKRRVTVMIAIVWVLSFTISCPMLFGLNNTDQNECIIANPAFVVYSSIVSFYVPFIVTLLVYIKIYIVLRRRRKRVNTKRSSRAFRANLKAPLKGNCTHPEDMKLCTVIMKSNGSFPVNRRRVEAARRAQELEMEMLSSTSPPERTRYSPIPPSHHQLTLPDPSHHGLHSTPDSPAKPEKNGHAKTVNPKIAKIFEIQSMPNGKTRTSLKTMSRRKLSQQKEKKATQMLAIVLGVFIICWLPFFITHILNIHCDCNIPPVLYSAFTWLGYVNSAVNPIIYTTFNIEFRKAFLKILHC
Test: Binding affinity against Dopamine receptor D2 in bovine striatal homogenate using 200 pM [3H]- spiperone and 250 nM unlabeled ketanserin
Attribute: IC50
Outcome measure: IC50

>>> print(df.to_string())
                             molecule_smiles                          system_name  outcome_measure    result
 0  O=C(CCN1CC=C(c2ccc(F)cc2)CC1)c1ccc(Br)cc1  D(2) dopamine receptor (Bos taurus)             IC50   > 13 µM
 1   O=C(CCN1CC=C(c2ccc(Cl)cc2)CC1)c1ccccc1F  D(2) dopamine receptor (Bos taurus)             IC50    > 5 µM
 2  O=C(CCN1CC=C(c2ccc(Cl)cc2)CC1)c1ccc(F)c(F)c1  D(2) dopamine receptor (Bos taurus)             IC50    > 5 µM
 3  O=C(CCN1CC=C(c2ccc(Cl)cc2)CC1)c1ccc(Cl)cc1  D(2) dopamine receptor (Bos taurus)             IC50    > 5 µM
 4         O=C(CCN1CCC(c2ccccc2)CC1)c1ccccc1  D(2) dopamine receptor (Bos taurus)             IC50    > 5 µM
 5                     Clc1ccc(C2=CCNCC2)cc1  D(2) dopamine receptor (Bos taurus)             IC50    > 5 µM
 6                    CCN(CC)CCC(=O)c1ccccc1  D(2) dopamine receptor (Bos taurus)             IC50    > 5 µM
 7  O=C(CCN1CC=C(c2ccc(Cl)cc2)CC1)c1ccc(F)cc1  D(2) dopamine receptor (Bos taurus)             IC50    > 5 µM
 8  O=C(CCN1CC=C(c2ccc(F)cc2)CC1)c1ccc(Cl)cc1  D(2) dopamine receptor (Bos taurus)             IC50   > 15 µM
 9          c1ccc(CCCCN2CCC(c3ccccc3)CC2)cc1  D(2) dopamine receptor (Bos taurus)             IC50  0.335 µM
10                       C1=C(c2ccccc2)CCNC1  D(2) dopamine receptor (Bos taurus)             IC50    > 5 µM
11                  CCCN(CCC)CCC(=O)c1ccccc1  D(2) dopamine receptor (Bos taurus)             IC50    > 5 µM
12  COc1ccc(C(=O)CCN2CC=C(c3ccc(Cl)cc3)CC2)cc1OC  D(2) dopamine receptor (Bos taurus)             IC50    > 5 µM
